Tested on: S. aureus ATCC 12598
Protocol notes: Antibacterial activity, pre-exposure
Format: cell-based, Staphylococcus aureus
Applied conditions: S. aureus ATCC 12598, pre-exposure, 5 µM, ± SD
Entries whose Average inhibition %, planktonic cells viability is below 7% take t; entries at or above 7% take f.

CCCCCCCCCCc1ccc(C(O)CC(N)(CO)CO)cc1 (stereo not drawn) ... f
CCCCCCCCc1ccc2nc(CCC(N)(CO)CO)ccc2c1 ... f
CCCCCCCCc1ccc(CCC(N)(CO)CO)cc1 ... t
CCCCCCCCc1ccc2ccc(CC(N)(CO)CO)nc2c1 ... f
CCCCCCCCc1ccc2cc(CC(N)(CO)CO)ccc2c1 ... f

Identify whether the compound CCCCCCCCCCc1ccc2nc(CCC(N)(CO)CO)ccc2c1 records Average inhibition %, planktonic cells viability below 7%.
t

###

Test system: S. aureus ATCC 25923
Protocol notes: Antibacterial activity, pre-exposure (planktonic cells and biofilm formation)
Format: cell-based, Staphylococcus aureus
Applied conditions: pre-exposure, 15 µM, ± SD
Quantity kind: Average inhibition %, planktonic cells viability (%)
Provide only the numeric value, understood in %.

Please report Average inhibition %, planktonic cells viability for the following molecule: CCCCCCCCCCc1ccc2nc(CC(N)(CO)CO)ccc2c1
99.6

Please report Average inhibition %, planktonic cells viability for the following molecule: CCCCCCCCCCc1ccc2nc(CCC(N)(CO)CO)ccc2c1
99.7

Please report Average inhibition %, planktonic cells viability for the following molecule: CCCCCCCCc1cccc(CCC(N)(CO)CO)c1
36.1

Please report Average inhibition %, planktonic cells viability for the following molecule: CCCCCCCCOc1ccc(CCC(N)(CO)CO)cc1
36.9

Please report Average inhibition %, planktonic cells viability for the following molecule: CCCCCCCCc1ccc(CC(N)(CO)CO)cc1
66.8

Please report Average inhibition %, planktonic cells viability for the following molecule: CCCCCCCCCCc1ccc(C(O)CC(N)(CO)CO)cc1 (stereo not shown)
99.8

###

Test system: A. baumannii NCTC 13423
Protocol notes: Antibacterial activity, pre-exposure
Format: cell-based, Acinetobacter baumannii
Applied conditions: A. baumannii NCTC 13423, pre-exposure, 10 µM, ± SD
A collection of compounds and their measured Average inhibition %, biofilms viability
Provide only the numeric value, understood in %.

Worked set:
CCCCCCCCc1ccc(CC(N)(CO)CO)cc1 ... 0.6
CCCCCCCCc1cccc(CCC(N)(CO)CO)c1 ... 0.2

Please report Average inhibition %, biofilms viability for the following compound: CCCCCCCCCCc1ccc(CCC(N)(CO)CO)nc1
40

Please report Average inhibition %, biofilms viability for the following compound: CCCCCCCCCCc1ccc2nc(CC(N)(CO)CO)ccc2c1
0.7

Please report Average inhibition %, biofilms viability for the following compound: CCCCCCCCCCc1ccc2nc(CCC(N)(CO)CO)ccc2c1
0

Please report Average inhibition %, biofilms viability for the following compound: CCCCCCCCOc1ccc(CCC(N)(CO)CO)cc1
0

Please report Average inhibition %, biofilms viability for the following compound: CCCCCc1ccc(-c2ccc(CCC(N)(CO)CO)cc2)cc1
0

Please report Average inhibition %, biofilms viability for the following compound: CCCCCCCCc1ccc(C(O)CC(N)(CO)CO)cc1 (stereo not shown)
0

Please report Average inhibition %, biofilms viability for the following compound: CCCCCCCCCCOc1ccc(CCC(N)(CO)CO)cc1
0

Please report Average inhibition %, biofilms viability for the following compound: CCCCCCCCCCc1ccc(C(O)CC(N)(CO)CO)cc1 (stereo not shown)
1.8
